Source listed as patent US5643884A.

tested on: E-selectin; assay: cancer cell adhesion to E-selectin (E-selectin chimera binding to fixed LS174T colon carcinoma cells); assay type: cell-based; conditions: lowest concentration from serial two-fold dilutions inhibiting by 50% or more, FIGS. 3 and 4
Measure: IC50 (µM)
Numbers only, in µM.

Recall the recorded IC50 for C=C(C)[C@@H]1CC[C@]2(C(=O)O)CC[C@]3(C)[C@H](CC[C@@H]4[C@@]5(C)CC[C@H](O)C(C)(C)[C@@H]5CC[C@]43C)[C@@H]12 with E-selectin and state it.
60
